Recorded TGI by entry
# System: HCT-15 colon
# Method: NCI tumour cell line growth inhibition, 48 h
Test readout: TGI

* COc1cc2c(cc1OC)-c1c(cc(OC)c(OC)c1OC)C2=O | > 100 µM
* c1ccc(C2CC(N3CCOCC3)=Nc3ccccc3N2)cc1 (stereo not given) | > 100 µM
* COC(=O)C(C(=O)C(=O)Nc1ccccc1OC)c1csc(-n2nc(-c3ccccc3)cc2-c2ccccc2)n1 (stereo not given) | > 100 µM
* CC1=CCC2(C#N)CCC1C2=O (stereo not given) | > 100 µM
* CCC12C=CCN3CC[C@]4(C(=C(C(=O)OC)[C@@H]1Nc1ccn(C5OC(COC(C)=O)C(OC(C)=O)C5OC(C)=O)c(=O)n1)Nc1ccccc14)C32 (stereo not given in full) | 6.83 µM
